- experiment_summary: In Vitro Stability Assay—Mouse Plasma
- Assay type: in vitro ADME
- cond: attachment position L11B; % DAR remaining after plasma 3 or 4.5 days
*1 amine or outer side, *2 acyl side, *3 side chain or, on linkers, in order; H or OH if unused. Where a SMILES comes first, the peptide text is derived from it. [ ]: non-standard residue; d: D form. The star is where a group is joined. Dolaproine = CO[C@@H]([C@@H]1CCCN1)[C@@H](C)C(=O)O; Dil = CC[C@H](C)[C@H](NC)[C@@H](CC(=O)O)OC; PABC = O=C(OCc1ccc(N[*:1])cc1)[*:2]; Doe = c1ccc(C[C@H](N*)c2nccs2)cc1; Cit = NC(=O)NCCC[C@H](N)C(=O)O; dLac = C[C@@H](O)C(=O)O; Aib = CC(C)(N)C(=O)O
parameter_measured: Conjugate stability (%)
One number for each entry, in %.

As a guide, the following entries are already answered.
1) CC[C@H](C)[C@@H]([C@@H](CC(=O)N1CCC[C@H]1[C@H](OC)[C@@H](C)C(=O)N[C@@H](Cc1ccccc1)c1nccs1)OC)N(C)C(=O)[C@@H](NC(=O)C(C)(C)NC(=O)OCc1ccc(NC(=O)[C@H](CCCNC(N)=O)NC(=O)[C@@H](NC(=O)[C@H](CCCCN)NC(=O)[C@@H](C)O)C(C)C)cc1)C(C)C [Example 41] (H-[dLac]KV[Cit][PABC][Aib]V[Dil][Dolaproine]-Doe): 49
2) CC[C@H](C)[C@@H]([C@@H](CC(=O)N1CCC[C@H]1[C@H](OC)[C@@H](C)C(=O)N[C@@H](Cc1ccccc1)c1nccs1)OC)N(C)C(=O)[C@@H](NC(=O)C(C)(C)NC(=O)OCc1ccc(NC(=O)[C@H](CCCNC(N)=O)NC(=O)[C@@H](NC(=O)[C@H](CCCCN)NC(=O)[C@H](C)N)C(C)C)cc1)C(C)C [Example 34] (H-AKV[Cit][PABC][Aib]V[Dil][Dolaproine]-Doe): 50

Let us examine a further case.
Task: Answer with the recorded Conjugate stability (%) of CC[C@H](C)[C@@H]([C@@H](CC(=O)N1CCC[C@H]1[C@H](OC)[C@@H](C)C(=O)N[C@@H](Cc1ccccc1)c1nccs1)OC)N(C)C(=O)[C@@H](NC(=O)C(C)(C)NC(=O)OCc1ccc(NC(=O)[C@H](CCCNC(N)=O)NC(=O)[C@@H](NC(=O)[C@H](CCCCN)NC(=O)CNC(C)=O)C(C)C)cc1)C(C)C [Example 37] (Ac-GKV[Cit][PABC][Aib]V[Dil][Dolaproine]-Doe) only.
Result: 44
